Target: T1, formyl peptide receptor 2 (FPR2) (UniProt P25090 1-351, limits assumed)
T1 sequence (looked up): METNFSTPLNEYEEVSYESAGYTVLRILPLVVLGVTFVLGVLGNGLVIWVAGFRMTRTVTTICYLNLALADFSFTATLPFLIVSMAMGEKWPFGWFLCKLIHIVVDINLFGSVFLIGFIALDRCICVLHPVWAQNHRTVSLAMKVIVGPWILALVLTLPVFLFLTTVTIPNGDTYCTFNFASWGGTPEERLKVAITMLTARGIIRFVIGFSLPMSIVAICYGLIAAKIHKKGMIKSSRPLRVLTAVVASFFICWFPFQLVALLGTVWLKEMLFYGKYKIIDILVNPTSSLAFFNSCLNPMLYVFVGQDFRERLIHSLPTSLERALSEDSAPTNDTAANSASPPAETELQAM
Assay: cell-based or functional assay
// reported EC50 for [Ca2+] for each item listed
Quantity measured: EC50 for [Ca2+]

RMRYKYM (HELM PEPTIDE1{R.M.R.Y.K.Y.[dM].[am]}$$$$V2.0; N-terminus assumed; SMILES CSCC[C@H](NC(=O)[C@@H](N)CCCNC(=N)N)C(=O)N[C@@H](CCCNC(=N)N)C(=O)N[C@@H](Cc1ccc(O)cc1)C(=O)N[C@@H](CCCCN)C(=O)N[C@@H](Cc1ccc(O)cc1)C(=O)N[C@H](CCSC)C(N)=O) [peptide of SEQ ID NO 38]; < 10 nM
KMKYKVM (HELM PEPTIDE1{[CCCC(=O)[*:2]].K.M.K.Y.K.V.[dM].[am]}$$$$V2.0; SMILES CCCC(=O)N[C@@H](CCCCN)C(=O)N[C@@H](CCSC)C(=O)N[C@@H](CCCCN)C(=O)N[C@@H](Cc1ccc(O)cc1)C(=O)N[C@@H](CCCCN)C(=O)N[C@H](C(=O)N[C@H](CCSC)C(N)=O)C(C)C) [peptide of SEQ ID NO 11]; < 10 nM
HKYWPM (HELM PEPTIDE1{[CCCC(=O)[*:2]].H.K.Y.W.P.[dM].[am]}$$$$V2.0; SMILES CCCC(=O)N[C@@H](Cc1c[nH]cn1)C(=O)N[C@@H](CCCCN)C(=O)N[C@@H](Cc1ccc(O)cc1)C(=O)N[C@@H](Cc1c[nH]c2ccccc12)C(=O)N1CCC[C@H]1C(=O)N[C@H](CCSC)C(N)=O) [peptide of SEQ ID NO 151]; < 10 nM

Data provenance is patent US20250361268A1.
